B1: PSD2 (parent)
chain: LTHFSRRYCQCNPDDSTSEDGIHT

Variants of: B1
Assay: protein stability index of a GFP-peptide fusion (GPS, HEK-293T) (PSI 1-6); higher = more stable;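 also: lentivirally expressed fusions sorted by FACS into six bins by GFP to DsRed ratio, PSI derived from sequencing read proportions per bin multiplied by bin number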
Conditions: c terminus: a fixed tail appended
# maps each entry to its protein stability index
Lab note: jot the number down without any unit.

Would you please look over these solved cases?
residue_change=H23R result=2.95
residue_change=E19V result=3.33

Query protein stability index for H3D
4.38

Query protein stability index for S5L
3.06

Query protein stability index for I22S
3.87

Values from the supplement of paper PMC10567573
